Target: UniProtKB P50406
Test: Agonist activity at human HT6 receptor expressed in human HeLa cells assessed as intracellular cAMP level by radioimmunoassay relative to serotonin
Format: functional, cell-based
measured-parameter: Emax (%)

a = NCCn1cc(S(=O)(=O)c2cccc(Cl)c2)c2ncccc21
b = CN(C)CCn1cc(S(=O)(=O)c2ccccc2)c2cccnc21
Looking at recorded values for Emax, does a or b come in lower? // return label of chosen record
a
(a: 56%, b: 94%)

I = NCCn1cc(S(=O)(=O)c2cccc(F)c2)c2ncccc21
II = CN(C)CCn1cc(S(=O)(=O)c2cccc(F)c2)c2cccnc21
Dear colleague, could you let me know whether I or II has the lower recorded Emax? Thanks. Response format: the label of the selected entry.
I
(I: 51%, II: 100%)

----------
Molecular target: 5-hydroxytryptamine receptor 6 (Homo sapiens, UniProt P50406)
Sequence (P50406 whole entry): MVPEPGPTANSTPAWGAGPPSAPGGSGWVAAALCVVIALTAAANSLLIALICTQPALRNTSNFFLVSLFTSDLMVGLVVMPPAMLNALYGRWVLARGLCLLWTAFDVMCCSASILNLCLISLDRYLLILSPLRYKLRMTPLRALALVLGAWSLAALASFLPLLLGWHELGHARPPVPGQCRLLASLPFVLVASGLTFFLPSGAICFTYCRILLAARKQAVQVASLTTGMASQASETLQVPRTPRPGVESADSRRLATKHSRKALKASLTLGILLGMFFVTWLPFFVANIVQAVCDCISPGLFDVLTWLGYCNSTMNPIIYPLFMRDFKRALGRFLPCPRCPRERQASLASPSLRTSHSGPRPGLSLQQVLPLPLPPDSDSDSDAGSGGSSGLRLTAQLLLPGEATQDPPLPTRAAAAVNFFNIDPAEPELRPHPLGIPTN
Test: Antagonistic activity at human HT6 receptor expressed in HeLa cells assessed as intracellular cAMP level by radioimmunoassay
measured-parameter: IC50 (nM)

| structure-as-smiles | IC50, nM |
| --- | --- |
| COc1ccc2c(n1)c(S(=O)(=O)c1cccc3ccccc13)cn2CCN(C)C | 295 |

A = CC(=O)c1ccc2c(n1)c(S(=O)(=O)c1ccc(Br)cc1)cn2CCN(C)C
B = COc1ccc2c(n1)c(S(=O)(=O)c1cccc(F)c1)cn2CCN(C)C
# argmax over IC50 for candidates A and B Please indicate the selected item by its label.
A

----------
Biological target: 5-hydroxytryptamine receptor 6 (Homo sapiens, UniProt P50406)
Assay: Agonistic activity at human HT6 receptor expressed in HeLa cells assessed as intracellular cAMP level by radioimmunoassay
pEC50: −log10 of the molar value.
measured-parameter: pEC50

I = NCCn1cc(S(=O)(=O)c2cccc(F)c2)c2ncccc21
II = NCCn1cc(S(=O)(=O)c2cccc(Cl)c2)c2ncccc21
Which record would sort first by descending pEC50, I or II ? Returns: label corresponding to the selected item.
II

----------
Biological target: 5-hydroxytryptamine receptor 6 (Homo sapiens)
measured-parameter: Ki (nM)

| structure-as-smiles | Ki, nM |
| --- | --- |
| COc1ccc2c(n1)c(S(=O)(=O)c1cccc3ccccc13)cn2CCN(C)C | 1.7 |
| CC(=O)c1ccc2c(n1)c(S(=O)(=O)c1ccccc1)cn2CCN(C)C | 56 |
| COc1ccc2c(n1)c(S(=O)(=O)c1cccc(F)c1)cn2CCN(C)C | 11.3 |

I = NCCn1cc(S(=O)(=O)c2cccc(F)c2)c2ncccc21
II = CC(=O)c1ccc2c(n1)c(S(=O)(=O)c1ccc(Br)cc1)cn2CCN(C)C
Pick one: I or II . Which one has the lower reported Ki? Please identify the chosen entry by its label.
II
(II: 3.9 nM, I: 76 nM)
